System: Saccharomyces cerevisiae;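 further: PSI is a weighted mean of sequencing reads over stability bins, variants kept only with over 10 reads, mCherry proximal and sfGFP distal, peptide attached via GGGS linker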
Protocol details: protein stability index of tFT-peptide fusion (C-terminal peptide) (PSI (0-1 scale)); higher = more stable (slower turnover)
Condition parameters: genetic background: wild type; temperature: 30 C
Each entry falls in a class defined on protein stability index; the bands are A = under 0.6, B = from 0.6 up to 0.7, C = 0.7 and over

// known answers, use as guide
INSERT INTO measurements (sequence_code, system, class_label) VALUES
  ('YKLRAVFVCSVT', 'Saccharomyces cerevisiae', 'A'),
  ('SSCFLLFRVVWR', 'Saccharomyces cerevisiae', 'A'),
  ('GVVCCGFFFLVV', 'Saccharomyces cerevisiae', 'A'),
  ('PLTFARLPPPTL', 'Saccharomyces cerevisiae', 'B'),
  ('GRFSHRCGGGVW', 'Saccharomyces cerevisiae', 'B'),
  ('SLPLVLHGHRLY', 'Saccharomyces cerevisiae', 'B');

Query string: # classify by protein stability index band: "VCGFRVGGYIGV"
Result string: C

Query string: Thanks! And "TNGHIVRLGRRV" ?
Result string: B

Query string: Also "RSPPLEPTLDPL" ?
Result string: C

Query string: Record: "ILVAPAYYCWKV"
Result string: B

Query string: Another: "PIELTLQRPPGV"
Result string: B

Query string: Would you kindly repeat that for "LLLRSSRLRVLS" ?
Result string: A

Query string: Item: "SPVPRPGTTRRP"
Result string: C

Query string: Next sequence: "GVPRNSCHYPYG"
Result string: B

Query string: // next record "VGRVGVREGVVG"
Result string: B

Query string: Now give it for "GWGGGGGGGAGG" too.
Result string: B
